- protocol_summary: Phase 1 single ascending dose (SAD) pharmacokinetics, fasted
- Format: in vivo, human
- test_context: male, human, plasma; single oral 3 mg/kg, fasted; geometric mean (%CV); read-out: Vz/F
- Source text: This clinical trial was a randomized, double-blind, placebo controlled single ascending (SAD) and multiple ascending (MAD) study to evaluate the safety, tolerability, and pharmacokinetics of vamorolone in health adult subjects. The study protocol and its amendments were reviewed and approved by an Institutional Review Board. […]
readout_label: Vd/F
Dear colleague, please send the value followed by its unit.

Report Vd/F for C[C@@H]1C[C@H]2[C@@H]3CCC4=CC(=O)C=C[C@]4(C)C3=CC[C@]2(C)[C@@]1(O)C(=O)CO
6.76 L/kg

====

- protocol_summary: Phase 1 single ascending dose (SAD) pharmacokinetics, fasted
- Type: in vivo, human
- test_context: male, human, plasma; single oral 1 mg/kg, fasted; geometric mean (%CV); read-out: Vz/F
readout_label: Vd/F
Dear colleague, please send the value followed by its unit.

Report Vd/F for C[C@@H]1C[C@H]2[C@@H]3CCC4=CC(=O)C=C[C@]4(C)C3=CC[C@]2(C)[C@@]1(O)C(=O)CO
5.22 L/kg

====

- protocol_summary: Phase 1 single ascending dose (SAD) pharmacokinetics, fasted
- Format: in vivo, human
- test_context: male, human, plasma; oral, healthy subjects; approximate overall; read-out: half-life (converted)
readout_label: half-life

Report half-life for C[C@@H]1C[C@H]2[C@@H]3CCC4=CC(=O)C=C[C@]4(C)C3=CC[C@]2(C)[C@@]1(O)C(=O)CO
~3 h

====

- Tested on: white blood cells and subsets (lymphocytes, neutrophils, eosinophils)
- protocol_summary: Differential white blood cell counts (immune suppression), MAD
- Format: in vivo, human
- test_context: MAD 9.0 mg/kg; Day 3 predose; mean
readout_label: Eosinophils

Report Eosinophils for C[C@@H]1C[C@H]2[C@@H]3CCC4=CC(=O)C=C[C@]4(C)C3=CC[C@]2(C)[C@@]1(O)C(=O)CO [vamorolone]
0.1 10^9/L

====

- Test system: white blood cells and subsets (lymphocytes, neutrophils, eosinophils)
- protocol_summary: Differential white blood cell counts (immune suppression), MAD
- Assay type: in vivo, human
- test_context: MAD 3.0 mg/kg; Day 12 predose; mean
readout_label: Eosinophils

Report Eosinophils for C[C@@H]1C[C@H]2[C@@H]3CCC4=CC(=O)C=C[C@]4(C)C3=CC[C@]2(C)[C@@]1(O)C(=O)CO
0.18 10^9/L

====

- Tested on: white blood cells and subsets (lymphocytes, neutrophils, eosinophils)
- protocol_summary: Differential white blood cell counts (immune suppression), MAD
- Type: in vivo, human
- test_context: MAD 1.0 mg/kg; Day 17 (3 days after last dose); mean
readout_label: Eosinophils

Report Eosinophils for C[C@@H]1C[C@H]2[C@@H]3CCC4=CC(=O)C=C[C@]4(C)C3=CC[C@]2(C)[C@@]1(O)C(=O)CO
0.17 10^9/L

====

- protocol_summary: Phase 1 single ascending dose (SAD) pharmacokinetics, fasted
- Format: in vivo, human
- test_context: male, human, plasma; single oral 20 mg/kg, fasted; geometric mean (%CV)
readout_label: Cmax (ng/mL)
Only the number, expressed in ng/mL, is required.

Report Cmax for C[C@@H]1C[C@H]2[C@@H]3CCC4=CC(=O)C=C[C@]4(C)C3=CC[C@]2(C)[C@@]1(O)C(=O)CO [vamorolone]
1650
